System: SK-OV-3 ovarian
Assay: NCI-60 one-dose screen, 48 h
Conditions: 10 µM unless noted
The panel holds about 83,000 compounds, 20% with a hit somewhere; the sample as a whole holds those more often. Calls of active or inactive are those of the source. Rule for the calls: active = growth percent below 10; inactive = the rest.
Outcome codes: T = active, F = inactive

{"COMPOUND": "CCN=C1C=CC(=C(c2ccc(N(CC)CC)cc2)c2ccc(N(CC)CC)cc2)c2ccccc21", "SUBJECT OF TEST": "SK-OV-3 ovarian", "GROUP": "T"}
{"COMPOUND": "O=C1NC(=O)c2cc([N+](=O)[O-])cc3cccc1c23", "SUBJECT OF TEST": "SK-OV-3 ovarian", "GROUP": "F"}
{"COMPOUND": "CCCCC1COc2cccc3c2N1C=C/C3=C\\C(=O)n1ccc2ccccc21 (stereo not drawn)", "SUBJECT OF TEST": "SK-OV-3 ovarian", "GROUP": "F"}
{"COMPOUND": "COc1ccc(C(=O)CSc2nnc(-c3cc(-c4ccccc4)nc4ccccc34)o2)cc1", "SUBJECT OF TEST": "SK-OV-3 ovarian", "GROUP": "F"}
{"COMPOUND": "CCN(CC)c1ccc2cc(C(Nc3ccc(Br)c(C(F)(F)F)c3)c3nnnn3C(C)(C)C)c(=O)oc2c1 (stereo not drawn)", "SUBJECT OF TEST": "SK-OV-3 ovarian", "GROUP": "F"}
{"COMPOUND": "CN(C)c1cc(NN=C(c2ccc(O)cc2)c2ccc(O)cc2)c([N+](=O)[O-])cc1[N+](=O)[O-]", "SUBJECT OF TEST": "SK-OV-3 ovarian", "GROUP": "F"}
{"COMPOUND": "COc1cccc(-c2[nH]c(=S)ncc2C(=O)c2ccccc2)c1", "SUBJECT OF TEST": "SK-OV-3 ovarian", "GROUP": "F"}
{"COMPOUND": "COC(=O)[C@H](CC(C)C)NC(=O)NC(=O)NC(=O)CI", "SUBJECT OF TEST": "SK-OV-3 ovarian", "GROUP": "F"}
{"COMPOUND": "CCCCCCCCCN(CCCCCCCCC)C(C)C(=O)c1ccc2cc(Br)c3ccccc3c2c1 (stereo not drawn)", "SUBJECT OF TEST": "SK-OV-3 ovarian", "GROUP": "F"}
{"COMPOUND": "CCCCNC(=O)NS(=O)(=O)Cc1ccccc1", "SUBJECT OF TEST": "SK-OV-3 ovarian", "GROUP": "F"}
{"COMPOUND": "COc1ccccc1S(=O)Nc1ccccc1 (stereo not drawn)", "SUBJECT OF TEST": "SK-OV-3 ovarian", "GROUP": "F"}
{"COMPOUND": "O=C1NC(=O)C(Cc2ccccc2)(Cc2ccccc2)N1", "SUBJECT OF TEST": "SK-OV-3 ovarian", "GROUP": "F"}
{"COMPOUND": "O=c1cc(-c2ccccc2)oc2cc(OCc3cn(Cc4ccc(F)cc4)nn3)cc(O)c12", "SUBJECT OF TEST": "SK-OV-3 ovarian", "GROUP": "F"}
{"COMPOUND": "CCCCN(CCCC)CC(O)c1ccc(OCc2ccccc2)c2ccccc12 (stereo not drawn)", "SUBJECT OF TEST": "SK-OV-3 ovarian", "GROUP": "F"}
{"COMPOUND": "COc1ccc(-c2cc(-c3ccc(Cl)cc3)nc(SCCCCCCC(=O)NO)n2)cc1", "SUBJECT OF TEST": "SK-OV-3 ovarian", "GROUP": "F"}
{"COMPOUND": "COc1c(C(C)=O)c(OCCCCOc2c(C(C)=O)c(OC)c3ccoc3c2OC)c(OC)c2occc12", "SUBJECT OF TEST": "SK-OV-3 ovarian", "GROUP": "F"}
{"COMPOUND": "COc1ccc(N(c2nc(-c3ccc([N+](=O)[O-])cc3)cs2)C(C)C)cc1", "SUBJECT OF TEST": "SK-OV-3 ovarian", "GROUP": "F"}
{"COMPOUND": "Nc1nc(Nc2ccccc2)c2ncn(Cc3cc4c(cc3Br)OCO4)c2n1", "SUBJECT OF TEST": "SK-OV-3 ovarian", "GROUP": "F"}
{"COMPOUND": "CC1Cc2c(ncnc2-n2cnc3ccccc32)N(C)c2ccccc21 (stereo not drawn)", "SUBJECT OF TEST": "SK-OV-3 ovarian", "GROUP": "F"}
{"COMPOUND": "CCCCCCCCCCCCNC(=S)N/N=C/c1ccccc1O", "SUBJECT OF TEST": "SK-OV-3 ovarian", "GROUP": "F"}
{"COMPOUND": "Nc1cc(N)c(N=Nc2ccc(S(=O)(=O)O)cc2)cc1N=Nc1ccc(-c2ccc(N=Nc3ccc(O)c(C(=O)O)c3)cc2)cc1", "SUBJECT OF TEST": "SK-OV-3 ovarian", "GROUP": "F"}
{"COMPOUND": "Cc1ccc(S(=O)(=O)NCCCNc2nccc(-c3c(-c4cccc(F)c4)nc4occn34)n2)cc1", "SUBJECT OF TEST": "SK-OV-3 ovarian", "GROUP": "F"}
{"COMPOUND": "N#CC1C(=O)NC(c2ccccc2[N+](=O)[O-])c2sc3c(F)cccc3c21 (stereo not drawn)", "SUBJECT OF TEST": "SK-OV-3 ovarian", "GROUP": "F"}
{"COMPOUND": "O=C1COCCN1c1ccc(NCc2cn(Cc3ccccc3)c3ccccc23)cc1", "SUBJECT OF TEST": "SK-OV-3 ovarian", "GROUP": "F"}
{"COMPOUND": "CC/C=C(\\C)C(CCC)(CN=O)C(=O)OCC (stereo not drawn)", "SUBJECT OF TEST": "SK-OV-3 ovarian", "GROUP": "F"}
{"COMPOUND": "CC1(C)CC[C@]2(C(=O)O)CC[C@]3(C)C(=CC[C@@H]4[C@@]5(C)C/C(=C/c6cccnc6)[C@H](O)C(C)(C)[C@@H]5CC[C@]43C)[C@@H]2C1", "SUBJECT OF TEST": "SK-OV-3 ovarian", "GROUP": "T"}
{"COMPOUND": "Cc1ccc2c(c1)C(C)Cc1c(Cl)ncnc1N2C (stereo not drawn)", "SUBJECT OF TEST": "SK-OV-3 ovarian", "GROUP": "F"}
{"COMPOUND": "CC(C)C1=NOC(=O)C1=Cc1cn(-c2ccccc2)nc1-c1ccc(Br)cc1", "SUBJECT OF TEST": "SK-OV-3 ovarian", "GROUP": "F"}
{"COMPOUND": "N#Cc1c(N2CCOCC2)nc(=S)[nH]c1-c1ccco1", "SUBJECT OF TEST": "SK-OV-3 ovarian", "GROUP": "F"}
{"COMPOUND": "CC1(C)CC[C@]2(C(=O)OC(=O)[C@]34CCC(C)(C)C[C@@H]3C3=CC[C@@H]5[C@@]6(C)CCC(=O)C(C)(C)[C@@H]6CC[C@@]5(C)[C@]3(C)CC4)CC[C@]3(C)C(=CC[C@@H]4[C@@]5(C)CCC(=O)C(C)(C)[C@@H]5CC[C@]43C)[C@H]2C1", "SUBJECT OF TEST": "SK-OV-3 ovarian", "GROUP": "F"}
{"COMPOUND": "CC[C@]12C=CCN3CC[C@@]4(c5ccc(OC)cc5N(C)[C@H]4[C@@](O)(C(=O)OC)[C@@H]1OC(=O)CCC(=O)O[C@H]1CC[C@H]4[C@@H]5CCC6=CC(=O)CC[C@@H]6[C@H]5CC[C@]14C)[C@@H]32", "SUBJECT OF TEST": "SK-OV-3 ovarian", "GROUP": "F"}
{"COMPOUND": "C=C(C)[C@@H]1CC[C@]2(C)[C@H](C(=O)C=C3[C@@H]4C[C@](C)(C(=O)N5CCN(C)CC5)CC[C@]4(C)CC[C@]32C)[C@@]1(C)CCC#N", "SUBJECT OF TEST": "SK-OV-3 ovarian", "GROUP": "T"}
{"COMPOUND": "COC(=O)[C@]1(C)CC[C@]2(C)CC[C@]3(C)C(=CC(=O)[C@@H]4[C@@]5(C)CCC(=O)NC(C)(C)[C@@H]5CC[C@]43C)[C@@H]2C1", "SUBJECT OF TEST": "SK-OV-3 ovarian", "GROUP": "T"}
{"COMPOUND": "COc1ccc2c(c1)C(C)Cc1c(Cl)nc(C)nc1N2C (stereo not drawn)", "SUBJECT OF TEST": "SK-OV-3 ovarian", "GROUP": "F"}
{"COMPOUND": "CCCCCCCCCCCCCCNC(=O)Nc1ccc(Cl)c(Cl)c1", "SUBJECT OF TEST": "SK-OV-3 ovarian", "GROUP": "F"}
{"COMPOUND": "Cc1cc[n+](CCCCCCCCCC[n+]2ccc(C)cc2)cc1", "SUBJECT OF TEST": "SK-OV-3 ovarian", "GROUP": "F"}
{"COMPOUND": "CCOc1ccc(/C=C(\\C#N)c2cc3ccccc3[nH]2)cc1", "SUBJECT OF TEST": "SK-OV-3 ovarian", "GROUP": "F"}
{"COMPOUND": "CC(=O)Nc1ccc(C=Nc2ccc3ccccc3c2)cc1", "SUBJECT OF TEST": "SK-OV-3 ovarian", "GROUP": "F"}
